Attribution: patent US7329737

kon overview
target: T1, hK1 (human tissue kallikrein 1), recombinant (human, UniProt P06870 25-262); test: SPR
T1 construct: Expressed in P. pastoris from KLK1 cDNA and purified; enzymatically active; also called KLK1; Recombinant (Pichia) Kallikrein
I only need the number, in M⁻¹ s⁻¹, no unit after it.

Binder | Measure | Endpoint result
M0104-B12 (Fab, V domains shown) VH: EVQLLESGGGLVQPGGSLRLSCAASGFTFSIYAMIWVRQAPGKGLEWVSSIYSSGGPTQYADSVKGRFTISRDNSKNTLYLQMNSLRAEDTAVYYCARGRRTYYYDSSGYYKYAAFDIWGQGTMVTVSS VL: DIQMTQSPSSLSASVGDRVTITCRASQAISNYLAWYQQQPGKVPKLLISAASTLQSGVPSRFSGSGSGTDFTLSISSLQPEDVATYYCQTYYSVPFTFGPGTKVDFKR | kon | 230000

Let us examine a further case.
Using the record for M0097-F04 (Fab, V domains shown) VH: EVQLLESGGGLVQPGGSLRLSCAASGFTFSPYQMWWVRQAPGKGLEWVSSISSSGGLTRYADSVKGRFTISRDNSKNTLYLQMNSLRAEDMAVYYCARVKLNYYGSGSYSLDAFDIWGQGTNGHRLKRLHQGPIGLPASTLLQEH VL: AQYELTQPPSASGTPGQRVTISCSGSSSNIGSNYVHWYQQLPGTAPKLLIYRNNRRPSGVPDRFSGSKSGTSASLAISGLRSEDEADYYCAAWDDSLSGLVVFGGGTKLTVLGQPKAAP , report its kon.
106000
